In this section, each of the binders is paired with its reported koff.
Molecular target: T1, c-Met ECD-Fc (cynomologus) (cynomologus, UniProt A0A2K5UM36 25-932)
T1 construct: also called cynomologus c-Met ECD-Fc
T1 sequence (A0A2K5UM36 entry or part of it limits assumed): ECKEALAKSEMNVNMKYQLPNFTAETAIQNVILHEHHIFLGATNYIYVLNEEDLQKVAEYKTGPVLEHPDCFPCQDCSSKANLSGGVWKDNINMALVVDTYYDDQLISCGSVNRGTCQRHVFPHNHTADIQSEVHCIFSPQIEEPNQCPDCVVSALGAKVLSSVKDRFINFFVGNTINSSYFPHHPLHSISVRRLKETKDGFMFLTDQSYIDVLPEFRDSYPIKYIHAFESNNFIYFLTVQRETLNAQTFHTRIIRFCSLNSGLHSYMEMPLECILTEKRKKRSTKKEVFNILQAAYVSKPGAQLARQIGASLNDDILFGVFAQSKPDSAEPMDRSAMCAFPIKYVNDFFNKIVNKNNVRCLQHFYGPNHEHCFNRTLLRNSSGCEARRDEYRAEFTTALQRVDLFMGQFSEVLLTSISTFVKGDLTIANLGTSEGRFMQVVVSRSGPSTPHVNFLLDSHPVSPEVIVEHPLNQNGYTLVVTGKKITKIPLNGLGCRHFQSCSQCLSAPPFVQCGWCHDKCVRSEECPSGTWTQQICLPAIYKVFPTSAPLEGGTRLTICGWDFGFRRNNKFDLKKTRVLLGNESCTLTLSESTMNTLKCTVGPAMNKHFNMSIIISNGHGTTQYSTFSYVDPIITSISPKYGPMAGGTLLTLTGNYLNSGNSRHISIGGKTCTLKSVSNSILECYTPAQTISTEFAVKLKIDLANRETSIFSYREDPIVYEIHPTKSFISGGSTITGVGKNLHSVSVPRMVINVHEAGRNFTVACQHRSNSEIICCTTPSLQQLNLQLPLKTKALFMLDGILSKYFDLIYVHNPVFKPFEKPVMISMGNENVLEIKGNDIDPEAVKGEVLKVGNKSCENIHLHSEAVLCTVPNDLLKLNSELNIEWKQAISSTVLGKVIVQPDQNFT
Experiment: SPR (BIACORE 3000), cynomologus c-Met ECD-Fc immobilized, antibody injected
The reply should contain only the number, in s⁻¹.

Sample records with koff:
{"columns": ["BINDER", "koff [s⁻¹]"],
 "data": [
  ["anti-c-Met monoclonal antibody 8.90.3 (antibody, V domains shown, Human IgG2 kappa) VH: EVQLVESGGGLVQPGGSLRLSCAASGFTFSRYSMNWVRQAPGKGLEWVSYISSRSSTIYYADSVKGRFTMSRDNAKNSLYMQMNSLRDEDTAVYYCGYGDYDYFDYWGQGTLVTVSS VL: DIQMTQSPSSVSASVGDRVIITCRASQGISSWLAWYQQKPGKAPKLLIYAASSLKSGVPSRFSGSGSGTDFTVTISSLQPEDFATYYCQQSNSLPWTFGQGTKVEIKR", 0.00025],
  ["anti-c-Met monoclonal antibody 13.3.2 (antibody, human IgG2, kappa, V domains shown, Human IgG2 kappa from XenoMouse hybridoma; The variable positions X2, X4, X6, X8 correspond to positions 42, 97, 14 (heavy) and 91 (light), where position one is the N-terminal amino acid; these numbers may not count on the entry with its leader; also called PTA-5026) VH: QVQLVQSGAEVKKPGASVKVSCEASGYTFTSYGFSWVRQAPGQGLEWMGWISASNGNTYYAQKLQGRVTMTTDTSTSSAYMELRSLRSDDTAVYYCARVYADYADYWGQGTLVTVSS VL: DIQMTQSPSSVSASVGDRVTITCRASQGINTWLAWYQQKPGKAPKLLIYAASSLKSGVPSRFSGSGSGADFTLTISSLQPEDFATYYCQQANSFPLTFGGGTKVEIKR", 0.00029],
  ["anti-c-Met monoclonal antibody 8.70.2 (antibody, V domains shown, Human IgG2 kappa; also called hybridoma 8.70.2 (LN 15885); PTA-5028) VH: QLQLQESGPGLVKPSETLSLTCTVSGGSISSSSYYGGWIRQPPGKGLDWIGSIYYSGNTYYNPSLKSRVTISVDTSKNQFSLKLSSVTAADTAVYYCARHSWDYFDYWDQGTLVTVSS VL: DIQMTQSPSSVSASVGDRVTITCRASQGISSWLAWYQQKPGKAPKLLIYAASSLQSGVPSRFSGSGSGTDFTLTISSLQSEDFATYYCQQANSFPITFGPGTKVEIKR", "6.5e-05"]
]}

Could you now look at the following binder, please?
Query :: Identify measured koff associated with anti-c-Met monoclonal antibody 13.3.2L-A91T, H-E42K, S97T (antibody, human IgG2, kappa, V domains shown, positions 42, 97, 14 and 91 count from the N-terminal amino acid and may not count on the entry with its leader) VH: QVQLVQSGAEVKKPGASVKVSCKASGYTFTSYGFSWVRQAPGQGLEWMGWISASNGNTYYAQKLQGRVTMTTDTSTSTAYMELRSLRSDDTAVYYCARVYADYADYWGQGTLVTVSS VL: DIQMTQSPSSVSASVGDRVTITCRASQGINTWLAWYQQKPGKAPKLLIYAASSLKSGVPSRFSGSGSGTDFTLTISSLQPEDFATYYCQQANSFPLTFGGGTKVEIKR
Result :: 0.0004
